Assign growth inhibition to each entry below.
# protocol notes: NCI Yeast Anticancer Drug Screen. Data for the mlh1 rad18 strain (AID 175)
# particulars: S. cerevisiae mlh1 rad18 strain growth inhibition; at 50.0 µM; active compounds read high
# Method: Growth inhibition of yeast strains with defined genetic alterations is measured as a screen for potential anti-cancer activity. Selected strains with alterations in DNA damage repair or cell cycle control were exposed to compounds and growth inhibition was measured relative to vehicle treated controls. The strain used in this assay is mlh1 rad18
This is part of a sample that, as a whole, favours compounds with a hit. Of some 79,000 tested, about 15% had one in any assay.
Quick reminder: number only, in %, skip the unit.

Which value of growth inhibition has been reported for "O=C1C/C(=C\c2cccc([N+](=O)[O-])c2)C(=O)N1" in the records?
-3.2

// returns reported growth inhibition for input "N=c1ncn(Cc2ccccc2)c2nc[nH]c12"
-4

What does the record list as growth inhibition for "CCCCCCc1cc2c(C)c(C)c(=O)oc2cc1OCCCOc1cc2oc(=O)c(C)c(C)c2cc1CCCCCC" ?
-46.3

Fill blank: measured growth inhibition of the compound COc1ccc(N2C(=O)C3c4[nH]c5ccccc5c4C4CCC(C(C)(C)C)CC4C3C2=O)c(C)c1 (centres undefined) is ____.
17.1

Request the reported growth inhibition associated with "Cc1cnc(NCCCCCCNc2ncc(C)c(-c3ccccc3O)n2)nc1-c1ccccc1O"
4.5

Consider the compound shown here: "COc1ccc(-c2c3c(nc4nc(SCC(=O)c5ccc(Br)cc5)nc(N)c24)CCCC3)cc1OC" What is its recorded growth inhibition?
9.65

Give its growth inhibition value. Item: COc1ccc(C2CCCCCC2OS(=O)(=O)c2ccc(C)cc2)c(OC)c1OC (centres undefined)
-9

Can you share its growth inhibition? I mean this compound: CC(=O)OC1CC23CCC(=O)C2(CC3)C1 (centres undefined)
-11

Which measured growth inhibition value corresponds to "Cc1cccc(/C=C(\C#N)C(=O)c2ccccc2)c1" ?
21.2

Look at this compound and give its reported growth inhibition. "CCCCNC(=S)/N=C/c1c(O)cc(C)oc1=O"
2.75

What value of growth inhibition has been recorded for this entry: "N#CC(C#N)=NNc1ccc2cn[nH]c2c1"
-1.95

So what's the measured growth inhibition for this one? NC(Cc1c[nH]c2ccc(O)cc12)C(=O)O (centres undefined)
-9.3

Can you share its growth inhibition? I mean this compound: "O=c1c2ccccc2on1CN1CCN(Cn2oc3ccccc3c2=O)CC1"
5.05

Find the recorded growth inhibition belonging to "CCCCCCCSSCCCCCCC" and report it.
-0.4

Param item = N#CC(c1ccc(O)cc1)N1CCN(C(C#N)c2ccc(O)cc2)CC1 (centres undefined) ; retrieve measured growth inhibition.
-43.4

For the compound O=C1C(Cl)N(c2c(Cl)cccc2Cl)C1c1c[nH]c2ccccc12 (centres undefined) , what growth inhibition is on record?
-41.8

Would you mind telling me what growth inhibition value was observed for OC(CCCN1CCN2CCc3[nH]c4ccccc4c3C2C1)c1ccc(F)cc1 (centres undefined) ?
10.8

Would you kindly share the measured growth inhibition for CCNC(=O)OC(C)C(O)c1ccccc1 (centres undefined) ?
29.2

// lookup growth inhibition for "CCCCN(C(C)=O)c1ccccc1"
1.1

For the compound shown here, "C=C(C)[C@@H]1CC[C@]2(C)CC[C@]3(C)[C@H](CC[C@@H]4[C@@]5(C)CC[C@H](OC(=O)c6ccccc6)C(C)(C)[C@@H]5CC[C@]43C)[C@@H]12" , give the reported growth inhibition.
0

Quick one: growth inhibition for O=C(NC(Cc1c[nH]c2ccccc12)C(=O)O)C(=O)c1c[nH]c2ccccc12 (centres undefined) ?
4.2

I'd like to know its growth inhibition. The compound in question is "C[C@@H](CO)OCOCc1ccccc1"
19.5

Look up growth inhibition for this compound: "O=c1ccn(Cc2ccccc2)c(=O)[nH]1"
21.9

Which value of growth inhibition has been reported for "COc1ccc(CCN(C)C(c2ccccc2)c2ccccc2)cc1OC" in the records?
3.3
